- Target or system: T1, human SIRPα variant 2 (human, UniProt P78324 31-504)
- T1 construct: full length ORF on transfected CHO-K1 cells; also called hSIRPαV2; SIRPαV2
- T1 sequence (P78324 other isoform, or with tags, fused parts or gaps mutant limits assumed): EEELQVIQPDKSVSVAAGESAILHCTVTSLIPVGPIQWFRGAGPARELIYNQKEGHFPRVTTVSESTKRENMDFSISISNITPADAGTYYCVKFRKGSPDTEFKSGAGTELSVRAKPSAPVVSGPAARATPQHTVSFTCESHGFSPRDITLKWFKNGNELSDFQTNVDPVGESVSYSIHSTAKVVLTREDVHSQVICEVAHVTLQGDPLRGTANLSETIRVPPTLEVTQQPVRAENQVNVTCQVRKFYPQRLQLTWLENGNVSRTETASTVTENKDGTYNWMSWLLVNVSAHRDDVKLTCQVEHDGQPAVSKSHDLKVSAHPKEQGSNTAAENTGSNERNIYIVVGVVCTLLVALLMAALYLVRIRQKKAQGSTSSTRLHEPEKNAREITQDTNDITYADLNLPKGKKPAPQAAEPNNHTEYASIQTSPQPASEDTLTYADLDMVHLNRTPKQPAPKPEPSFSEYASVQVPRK
- Procedure text: CELISA, CHO-K1 transfectants; average of two experiments
Recorded EC50 values for a group of binders are listed next.
Test readout: EC50 (nM)

Binder	Data value
hSIRPα.50A.H3L2 (antibody, human IgG4 S228P, kappa, V domains shown, human IgG4 S228P, kappa; also called hSIRPα.50H3L2) VH: EVQLVQSGAEVVKPGASVMISCKASGFTFTNYYIHWVRQRPGQGLEWIGWIYPGNVNTKYNEKFKARVIMTADKSTSTVYMQLSSLTSEDTAVYYCARPTIIATDFDVWGQGTLVTVSS VL: DIVMTQSPSSLSASVGDRVTITCKASQGVGTAVGWYQQKPGKAPKLLIYWASTRHTGVPDRFSGSGSGTDFTLTISNLQPEDFADYYCQQYSTYPFTFGGGTKVEIKR	0.999
hSIRPα.50A.H1L1 (antibody, human IgG4 S228P, kappa, V domains shown, human IgG4 S228P, kappa; also called hSIRPα.50H1L1) VH: EVQLQQSGAEVVKPGASVKVSCKASGFTFTNYYIHWVRQAPGQGLEWIGWIYPGNVNTKYNEKFKARVTITADKSTSTAYMDLSSLRSEDTAVYYCARPTIIATDFDVWGQGTTVTVSS VL: DIVLTQSPSFLSASVGDRVTITCKASQGVGTAVGWYQQKPGKAPKLLIYWASTRHTGVPDRFSGSGSGTEFTLTISSLQPEDFAAYYCQQYSTYPFTFGGGTKLEIKR	0.864
hSIRPα.50A.H5L4 (antibody, human IgG4 S228P, kappa, V domains shown, human IgG4 S228P, kappa; also called hSIRPα.50H5L4) VH: EVQLVQSGAEVVKPGASVKVSCKASGFTFTNYYIHWVRQAPEQGLEWIGWIYPGNVNTKYNEKFKARVTMTADKSTSTAYMELSSLRSDDMAVYYCARPTIIATDFDVWGQGTTVTVSS VL: DIQMTQSPSSLSASVGDRVTITCKASQGVGTAVGWYQKKPGKVPKLLIYWASTRHTGVPDRFSGSGSGTDFTLTINGLQPEDVATYYCQQYSTYPFTFGGGTKLEIKR	1.11

Source listed as patent US20180312587A1.
